- test_summary: RAM pathway blockade in budding yeast – dse1pr::URA3 reporter, 5-FOA selection, pilot screen (AID 869);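 further: 0% = DMSO wells with no growth and 100% = 10 µM 1-NA-PP1 with full growth; RAM network block rescues cells from 5-FOA so hits raise OD615 growth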
- stated_conditions: S. cerevisiae dse1pr::URA3 5-FOA growth, OD615, 2 d; at 10 µM; stronger effect = higher value; strain carries analog-sensitive mutant Cbk1 kinase
Would you kindly list inhibition for each of these compounds?
Give your result in % as a bare value.

Q: Please give the documented inhibition of `COC(=O)c1ccc(-n2nnnc2SCc2nn[nH]n2)cc1`
Result: 0.965

Q: Please give the documented inhibition of CCOC(=O)C1=C(C)N(C)C(=O)NC1c1ccccc1OC (stereo unspecified)
Result: 0.97

Q: Please give the documented inhibition of `O=C(CS(=O)(=O)Cc1ccccc1)Nc1nc2ccccc2s1`
Result: 4.3

Q: Please give the documented inhibition of CC1CCCC(NC(=O)c2ccc(CNc3c(N4CCCC4)c(=O)c3=O)cc2)C1C (stereo unspecified)
Result: 2.51

Q: Please give the documented inhibition of `CC(=O)Nn1cc2c(c1-c1ccccc1)c(=O)n(C)c(=O)n2C`
Result: 1.5

Q: Please give the documented inhibition of COc1cccc(C2CC(=O)Nc3c2c(=O)n(C)c(=O)n3C)c1OC (stereo unspecified)
Result: 2.06

Q: Please give the documented inhibition of `COC(=O)CCC(=O)Nc1ccc(Br)cc1`
Result: 1.16

Q: Please give the documented inhibition of `O=C(Cn1nc(Cc2cccnc2)c2ccccc2c1=O)NCCCN1CCCC1=O`
Result: 0.75

Q: Please give the documented inhibition of `CC(=O)NCCc1ccc(S(=O)(=O)NCc2ccc3c(c2)OCO3)cc1`
Result: 1.12

Q: Please give the documented inhibition of Cn1c(C(=O)NCC2CCCO2)cc2c(=O)n(C)c3ccccc3c21 (stereo unspecified)
Result: 2.33

Q: Please give the documented inhibition of COC(=O)c1ccccc1NC1c2ccccc2C(=O)N1c1cccnc1 (stereo unspecified)
Result: -1.07

---

- test_summary: RAM pathway blockade in budding yeast – dse1pr::URA3 reporter, 5-FOA selection, pilot screen (AID 869);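 further: 0% = DMSO wells with no growth and 100% = 10 µM 1-NA-PP1 with full growth; RAM network block rescues cells from 5-FOA so hits raise OD615 growth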
- stated_conditions: S. cerevisiae dse1pr::URA3 5-FOA growth, OD615, 2 d; at 10 µM; stronger effect = higher value; strain carries analog-sensitive mutant Cbk1 kinase
observed_property: inhibition (%)
Give your result in % as a bare value.

Q: Please give the documented inhibition of `Cc1cc(C)nc(NC2=NCC(=O)N2c2ccccc2Br)n1`
Result: 2.06

Q: Please give the documented inhibition of `c1cn2c(NC3CCCC3)c(-c3ccc(N4CCOCC4)cc3)nc2cn1`
Result: 1.78

Q: Please give the documented inhibition of `CCN(CC)CCn1c(=N)n(CCO)c2ccccc21`
Result: 0.605

Q: Please give the documented inhibition of CCC(C)NC(=O)C(NS(=O)(=O)c1ccc2c(c1)c(=O)n(C)c(=O)n2C)c1ccccc1 (stereo unspecified)
Result: 1.19

Q: Please give the documented inhibition of `CCCNC(=O)C1CCN(S(=O)(=O)c2ccc3nc4c(c(C(=O)O)c3c2)CCCCC4)CC1`
Result: 2.09

Q: Please give the documented inhibition of `Fc1ccc(-c2nnc3ccc(N4CCCC4)nn23)cc1`
Result: 0.685

Q: Please give the documented inhibition of `CC(=O)Nc1ccc(N=Cc2ccc[nH]2)cc1`
Result: 0.435

Q: Please give the documented inhibition of `CC(C)CCSc1nc2c(c(=O)[nH]c(=O)n2C)n1CCCc1ccccc1`
Result: 3.84

Q: Please give the documented inhibition of `O=C1C/C(=C/NCc2ccccc2)C(=O)N1`
Result: 1.04

Q: Please give the documented inhibition of `O=C(CCn1c(=S)[nH]c2ccccc2c1=O)N1CCOCC1`
Result: 0.715

Q: Please give the documented inhibition of `CCCC(=O)c1cc(F)c(N2CCN(S(=O)(=O)c3ccccc3)CC2)cc1C`
Result: 3.01

---

Would you kindly list growth inhibition for each of these compounds?
- test_summary: S. cerevisiae growth inhibition in restrictive medium, OD615, pilot screen, restrictive growth control, yeast lifespan reduction project (AID 706);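 further: modified DeaD lifespan yeast strain shifted to restrictive glucose medium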
- stated_conditions: OD615, 48 h, at 10 µM, stronger effect = higher value
Give your result in % as a bare value.

Q: Please give the documented growth inhibition of CCn1cc(C(=O)NCC2CCCO2)c(=O)c2cc(S(=O)(=O)N(C)C)ccc21 (stereo unspecified)
Result: 1.3

Q: Please give the documented growth inhibition of CNC(=O)C1C2C=CC3(O2)C1C(=O)N(C1CC1)C3C(=O)NCc1ccc(OC)cc1 (stereo unspecified)
Result: 1.86

Q: Please give the documented growth inhibition of `CCC(=O)Nc1cccc(Br)c1`
Result: 2.72

Q: Please give the documented growth inhibition of `O=C(C1CCN(c2nnc(-n3cccc3)s2)CC1)N1CCOCC1`
Result: -1.73

Q: Please give the documented growth inhibition of `O=C(c1ccc2snnc2c1)N1CCOCC1`
Result: -15.9

Q: Please give the documented growth inhibition of CC(C(=O)Oc1ccc2c(c1)OCO2)N1C(=O)c2ccccc2C1=O (stereo unspecified)
Result: 13.1

Q: Please give the documented growth inhibition of CCOc1ccc(C2CC(c3cccc(OC)c3)Nc3nc(N)nn32)cc1 (stereo unspecified)
Result: 13.6

Q: Please give the documented growth inhibition of `COC(=O)CCC(=O)Nc1ccc(Br)cc1`
Result: 0.895

Q: Please give the documented growth inhibition of `O=C(Nc1nc2ccc(Cl)cc2s1)c1ccc(Br)o1`
Result: -6.11

Q: Please give the documented growth inhibition of `O=C(c1ccc(Br)o1)N(Cc1ccccc1)c1ccccn1`
Result: -6.46

Q: Please give the documented growth inhibition of CCOC(=O)CC1C(=O)NCCN1C(=O)c1cc2c(=O)n3cccc(C)c3nc2s1 (stereo unspecified)
Result: -11.3

---

- test_summary: RAM pathway blockade in budding yeast – dse1pr::URA3 reporter, 5-FOA selection, pilot screen (AID 869);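 further: 0% = DMSO wells with no growth and 100% = 10 µM 1-NA-PP1 with full growth; RAM network block rescues cells from 5-FOA so hits raise OD615 growth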
- stated_conditions: S. cerevisiae dse1pr::URA3 5-FOA growth, OD615, 2 d; at 10 µM; stronger effect = higher value; strain carries analog-sensitive mutant Cbk1 kinase
Would you kindly list inhibition for each of these compounds?
Give your result in % as a bare value.

Q: Please give the documented inhibition of `COc1ccc(Nc2ncnc3c2cnn3-c2ccccc2)cc1OC`
Result: 0.635

Q: Please give the documented inhibition of `Cn1cccc1Cc1nnc(SCC(=O)N2CCCCCC2)n1-c1ccc(F)cc1`
Result: 1.27

Q: Please give the documented inhibition of `Cc1ccc(C)n1-n1c(C)nc2sc(-c3ccccc3)cc2c1=O`
Result: 0.52

Q: Please give the documented inhibition of `CCOC(=O)c1cnc2c(Cl)cc(Cl)cc2c1NCCOCCO`
Result: -0.09

Q: Please give the documented inhibition of `CCOC(=O)N1CCN(C(=O)CN(C2CCCCC2)S(=O)(=O)c2ccc(F)cc2)CC1`
Result: -0.815

Q: Please give the documented inhibition of `CCn1c(-c2cc(Br)ccc2O)n[nH]c1=S`
Result: 1.45

Q: Please give the documented inhibition of COc1ccc2c(c1OC)C(=O)OC2CC(=O)c1ccc(O)cc1 (stereo not given)
Result: 0.365

Q: Please give the documented inhibition of `CCOC(=O)N1CCC(NC(=O)c2ccc3c(c2)N(CC)CCS3)CC1`
Result: 3.51

Q: Please give the documented inhibition of `CCOC(=O)CN(C(=O)c1ccccc1)c1ccccc1C`
Result: 0.91

Q: Please give the documented inhibition of O=C(NC(Cc1ccc2c(c1)OCO2)C(=O)N1CCCC1C(=O)O)c1ccccc1 (stereo not given)
Result: 0.125

Q: Please give the documented inhibition of COc1ccc(-c2nc(CSCC(=O)N3CCN(c4cccc(C)c4)C(C)C3)c(C)o2)cc1OC (stereo not given)
Result: 1.96

Q: Please give the documented inhibition of CCOC(=O)N1CCC(NC(=O)C2CCCN(C(=O)c3cc4sccc4n3C)C2)CC1 (stereo not given)
Result: 0.665

Q: Please give the documented inhibition of CC1Cc2nc(SCC(=O)Nc3nccs3)n(C)c(=O)c2S1 (stereo not given)
Result: 1.56

Q: Please give the documented inhibition of CC1CCc2nn(CC(=O)NCCN3CCCCC3C)cc2C1 (stereo not given)
Result: 2.96

Q: Please give the documented inhibition of `COCCn1c(=O)[nH]c2cc(C(=O)NCCCN3CCN(c4ccc(F)cc4)CC3)ccc2c1=O`
Result: 0.63

Q: Please give the documented inhibition of `CCOC(=O)N1CCC(NC(=O)c2cc3c(-c4ccccc4F)nn(C)c3s2)CC1`
Result: 1.74

Q: Please give the documented inhibition of COC(=O)C1(C#N)C(c2ccccc2)C1(C(=O)OC)C(=O)OC (stereo not given)
Result: 1.43

Q: Please give the documented inhibition of `O=C(Nc1cccnc1)Nc1ccccn1`
Result: 0.185

Q: Please give the documented inhibition of Cc1ccc(NC(=O)Cn2cc3c(n2)CCC(C)C3)cc1 (stereo not given)
Result: 0.39

Q: Please give the documented inhibition of `Cn1c(SCC(=O)c2cc3ccccc3o2)nnc1-c1ccccc1`
Result: 1.88

Q: Please give the documented inhibition of `COc1ccc(-n2ncc3c(N4CCC(C)CC4)ncnc32)cc1`
Result: 1.94

Q: Please give the documented inhibition of O=C1OCc2cc(NC(=O)C3COc4ccccc4O3)ccc21 (stereo not given)
Result: 1.29

Q: Please give the documented inhibition of `COc1ccc(-n2c(Cc3cccn3C)nnc2SCC(=O)Nc2ccccc2C)cc1`
Result: 1.33

Q: Please give the documented inhibition of COCCCN1C(=O)C(=O)/C(=C(/O)c2ccc(OCC(C)C)cc2C)C1c1cccnc1 (stereo not given)
Result: 0.48

Q: Please give the documented inhibition of Cc1ccc(C(C)C)c(OCCCN2CC(C)OC(C)C2)c1 (stereo not given)
Result: 0.705

Q: Please give the documented inhibition of `COCCCNC(=O)CSc1ccc(Cl)cc1`
Result: 2.25

Q: Please give the documented inhibition of `Cc1c(-n2c(CN3C(=O)c4ccccc4C3=O)nc3ccccc3c2=O)c(=O)n(-c2ccccc2)n1C`
Result: 1.4

Q: Please give the documented inhibition of COc1ccc(NC(=O)C2Cc3ccccc3C(=O)O2)cc1 (stereo not given)
Result: 1.79

Q: Please give the documented inhibition of `Cc1c(C(=O)Nc2nnc(C(F)(F)F)s2)oc2ccccc12`
Result: 2.56

Q: Please give the documented inhibition of CC1CCCC(N2CCN(C(=O)c3ccc(F)cc3)CC2)C1 (stereo not given)
Result: 0.22

Q: Please give the documented inhibition of `Cc1cc(=O)oc2c1ccc1oc(/C(=N/O)c3ccccc3)c(C)c12`
Result: 0.035

Q: Please give the documented inhibition of `CCOC(=O)N1CCC(NC(=O)c2ccc(CS(=O)(=O)c3c(Cl)cccc3Cl)o2)CC1`
Result: 1.53

Q: Please give the documented inhibition of `CC(C)(C)NC(=O)CSc1nnc(-c2ccccn2)n1-c1ccccc1`
Result: 0.43

Q: Please give the documented inhibition of O=C(CSc1nnc(Cn2c(=O)sc3ccccc32)n1-c1ccccc1)NCC1CCCO1 (stereo not given)
Result: 1.41

Q: Please give the documented inhibition of COc1ccc(C2C(C(=O)NCc3cccnc3)c3ccccc3C(=O)N2C)cc1OC (stereo not given)
Result: 1.71

Q: Please give the documented inhibition of `COc1ccc(N(C)C(=O)CCS(=O)(=O)c2cccc3nonc23)c(OC)c1`
Result: 1.43

Q: Please give the documented inhibition of Cc1ccc(NC(=O)C(C)N2CCOCC2)c(C(=O)c2ccccc2)c1 (stereo not given)
Result: 1.09

Q: Please give the documented inhibition of O=C1NCC2=C1C(c1ccc(Br)cc1)Nc1ccccc1N2 (stereo not given)
Result: -0.645

Q: Please give the documented inhibition of Cc1cccc(C(=O)N2CCN(C(=O)c3cccc(C)c3)C(C)C2)c1 (stereo not given)
Result: 0.75

Q: Please give the documented inhibition of `CCCNS(=O)(=O)c1cccc2cccnc12`
Result: 1.89

Q: Please give the documented inhibition of `Cc1ccc(-c2cc(C(=O)Nc3cc(C)on3)c3ccccc3n2)c(C)c1`
Result: 1.68

Q: Please give the documented inhibition of `CCOC(=O)Cc1c(C)nc2c(-c3ccccc3)c[nH]n2c1=O`
Result: 1.96

Q: Please give the documented inhibition of `CCCNc1nc(N2CCOCC2)nc(N2CCOCC2)n1`
Result: 1.26

Q: Please give the documented inhibition of `CCOC(=O)N1CCN(Cc2nc3c(c(=O)n(C)c(=O)n3C)n2Cc2ccccc2)CC1`
Result: 0.61

Q: Please give the documented inhibition of `CCOc1ccccc1C(=O)Nc1nnc(CC)s1`
Result: 0.31
